- test_target: HLA-B*0702 (human)
- assay_info: competition with 125I-labeled probe peptide, purified HLA
Provide the reported IC50 of each item.

Value sought for every listed binder: IC50.
1. AAKLSALGL (modifications not checked)
2. LPRRGPRLG (modifications not checked)
3. APTGSGKST (modifications not checked)
4. APLGGAARA (modifications not checked)

Ans:
1: 277 nM; 2: 124 nM; 3: 370 nM; 4: 115 nM

Data origin, for the record: patent US20060093617A1
